FYI, the data here is from patent US20230148450A9.

Biological target: SOS1 catalytic domain (residues 564-1049) (Homo sapiens, UniProt Q07889)
Sequence (Q07889 564-1049): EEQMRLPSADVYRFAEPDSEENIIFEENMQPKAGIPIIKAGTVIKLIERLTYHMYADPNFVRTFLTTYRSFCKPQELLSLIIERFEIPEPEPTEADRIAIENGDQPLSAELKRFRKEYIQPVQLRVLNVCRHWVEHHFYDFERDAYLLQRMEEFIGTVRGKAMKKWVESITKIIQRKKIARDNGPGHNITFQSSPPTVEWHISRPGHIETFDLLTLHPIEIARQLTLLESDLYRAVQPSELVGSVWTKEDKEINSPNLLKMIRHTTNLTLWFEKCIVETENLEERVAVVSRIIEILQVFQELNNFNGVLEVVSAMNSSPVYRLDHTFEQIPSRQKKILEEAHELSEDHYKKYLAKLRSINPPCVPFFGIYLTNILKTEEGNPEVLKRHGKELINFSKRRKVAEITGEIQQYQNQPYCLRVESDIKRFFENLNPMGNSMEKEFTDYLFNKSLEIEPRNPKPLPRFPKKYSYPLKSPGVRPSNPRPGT
propertyMeasured: Kd

Give its Kd value. Item: C[C@@H](Nc1nccc2nc(C(=O)N3CC4(CN(CC(F)(F)F)C4)C3)cn12)c1cccc(C(F)F)c1F [Example 91]
≤ 400 nM

Give its Kd value. Item: C[C@@H](Nc1ncnn2cc(C(=O)N3CC4(C3)CN(C3COC3)C4)cc12)c1cccc(C(F)F)c1F [Example 72]
≤ 400 nM

Give its Kd value. Item: C[C@@H](Nc1nc(Cl)nc2c1cc(C1=CCNCC1)n2C)c1cc(N)cc(C(F)(F)F)c1 [Example 39]
≤ 400 nM

Give its Kd value. Item: Cc1nc(N[C@H](C)c2cc(N)cc(C(F)(F)F)c2)c2cc(C(=O)N3CCN(C)CC3)cn2n1 [Example 36]
≤ 400 nM

Give its Kd value. Item: C[C@@H](Nc1nccn2nc(C3=CCNCC3)nc12)c1cc(N)cc(C(F)(F)F)c1 [Example 53]
≤ 400 nM

Give its Kd value. Item: C[C@@H](Nc1nccc2nc(C(=O)N3CC4(CN(CC(F)F)C4)C3)cn12)c1cccc(C(F)F)c1F [Example 93]
≤ 400 nM

Give its Kd value. Item: C[C@@H](Nc1ncnn2cc(N3CCOCC3)cc12)c1cc(N)cc(C(F)(F)F)c1 [Example 47]
> 400 nM

Give its Kd value. Item: C[C@@H](Nc1nc(Cl)nc2c1nc(C(=O)N1CCOCC1)n2C)c1cccc(C(F)(F)CO)c1 [Example 103]
> 400 nM
